target: Voltage-gated inwardly rectifying potassium channel KCNH2 (Homo sapiens, UniProt Q12809)
Sequence (Q12809 whole entry): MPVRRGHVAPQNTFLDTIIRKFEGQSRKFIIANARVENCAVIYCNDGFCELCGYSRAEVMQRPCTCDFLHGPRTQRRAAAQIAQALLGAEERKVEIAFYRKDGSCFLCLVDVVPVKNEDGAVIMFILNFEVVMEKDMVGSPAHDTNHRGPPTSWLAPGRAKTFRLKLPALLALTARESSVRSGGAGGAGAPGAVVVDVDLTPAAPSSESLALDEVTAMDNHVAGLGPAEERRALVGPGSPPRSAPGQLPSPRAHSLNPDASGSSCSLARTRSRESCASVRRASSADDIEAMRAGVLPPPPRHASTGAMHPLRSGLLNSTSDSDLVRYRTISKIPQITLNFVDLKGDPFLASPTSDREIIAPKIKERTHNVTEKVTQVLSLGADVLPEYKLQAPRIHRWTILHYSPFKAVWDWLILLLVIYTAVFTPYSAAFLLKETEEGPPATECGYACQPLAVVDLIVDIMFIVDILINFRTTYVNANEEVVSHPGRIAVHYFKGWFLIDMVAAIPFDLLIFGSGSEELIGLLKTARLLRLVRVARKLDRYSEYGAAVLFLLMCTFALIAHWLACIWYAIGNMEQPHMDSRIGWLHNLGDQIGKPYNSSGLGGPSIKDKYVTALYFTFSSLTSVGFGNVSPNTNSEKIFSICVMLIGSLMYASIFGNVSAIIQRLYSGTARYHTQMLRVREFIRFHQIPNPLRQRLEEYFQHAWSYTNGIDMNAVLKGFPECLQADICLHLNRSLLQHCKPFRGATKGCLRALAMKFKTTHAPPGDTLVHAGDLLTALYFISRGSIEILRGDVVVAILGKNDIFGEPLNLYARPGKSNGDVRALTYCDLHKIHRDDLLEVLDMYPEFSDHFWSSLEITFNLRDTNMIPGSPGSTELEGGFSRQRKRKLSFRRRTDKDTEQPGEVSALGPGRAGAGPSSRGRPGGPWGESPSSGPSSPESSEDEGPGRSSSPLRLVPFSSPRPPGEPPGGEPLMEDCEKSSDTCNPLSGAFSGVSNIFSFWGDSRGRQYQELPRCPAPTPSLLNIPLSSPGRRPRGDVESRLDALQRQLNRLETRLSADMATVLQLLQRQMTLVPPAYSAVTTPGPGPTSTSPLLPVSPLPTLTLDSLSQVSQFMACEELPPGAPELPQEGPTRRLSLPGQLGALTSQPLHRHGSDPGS
readout.kind: pIC50
For clarity, pIC50 is expressed as the negative log10 of concentration in mol/L.

Request: Provide one value: measured pIC50 of c1ccc(-n2cc(-c3ccnc4ccccc34)cn2)cc1
Response: 5.60

---

Documented solubility kinetic across a set of compounds
test: Kinetic solubility of the compound at pH 7.4; type: physicochemical; details: buffer, read-out: Kinetic_solubility
Respond numerically; units are µM and should not be typed.

The cases that follow already have their solubility kinetic on record.
>>> df
                            molecule_smiles  recorded_result
0       c1ccc(-n2cc(-c3ccnc4ccccc34)cn2)cc1               21
1  CCN(CC)C(=O)Oc1ccc2c(-c3cnn(-c4ccccc4)c3)ccnc2c1              1.4

Could you now look at the following compound, please?
Request: Give the reported solubility kinetic for this compound. COc1ccc2c(-c3cnn(-c4ccccc4)c3)ccnc2c1
Response: 4.6

---

assay: Ratio of drug level in brain to plasma in rat at 30 mg/kg, sc; type: ADME, organism-based; parameters: dose 30 mg/kg, route subcutaneous; conditions: read-out: BPR
readout.kind: Kp
Lab note: jot the number down without any unit.

Request: Look up and state reported Kp for c1ccc(-n2cc(-c3ccnc4ccccc34)cn2)cc1
Response: 2.7

---

biological target: Metabotropic glutamate receptor 4 (Homo sapiens, UniProt Q14833); experiment: Positive allosteric modulation of human mGlu4 receptor expressed in BHK cells assessed as potentiation of glutamate-induced calcium mobilization by FLIPR analysis
Sequence (Q14833 whole entry): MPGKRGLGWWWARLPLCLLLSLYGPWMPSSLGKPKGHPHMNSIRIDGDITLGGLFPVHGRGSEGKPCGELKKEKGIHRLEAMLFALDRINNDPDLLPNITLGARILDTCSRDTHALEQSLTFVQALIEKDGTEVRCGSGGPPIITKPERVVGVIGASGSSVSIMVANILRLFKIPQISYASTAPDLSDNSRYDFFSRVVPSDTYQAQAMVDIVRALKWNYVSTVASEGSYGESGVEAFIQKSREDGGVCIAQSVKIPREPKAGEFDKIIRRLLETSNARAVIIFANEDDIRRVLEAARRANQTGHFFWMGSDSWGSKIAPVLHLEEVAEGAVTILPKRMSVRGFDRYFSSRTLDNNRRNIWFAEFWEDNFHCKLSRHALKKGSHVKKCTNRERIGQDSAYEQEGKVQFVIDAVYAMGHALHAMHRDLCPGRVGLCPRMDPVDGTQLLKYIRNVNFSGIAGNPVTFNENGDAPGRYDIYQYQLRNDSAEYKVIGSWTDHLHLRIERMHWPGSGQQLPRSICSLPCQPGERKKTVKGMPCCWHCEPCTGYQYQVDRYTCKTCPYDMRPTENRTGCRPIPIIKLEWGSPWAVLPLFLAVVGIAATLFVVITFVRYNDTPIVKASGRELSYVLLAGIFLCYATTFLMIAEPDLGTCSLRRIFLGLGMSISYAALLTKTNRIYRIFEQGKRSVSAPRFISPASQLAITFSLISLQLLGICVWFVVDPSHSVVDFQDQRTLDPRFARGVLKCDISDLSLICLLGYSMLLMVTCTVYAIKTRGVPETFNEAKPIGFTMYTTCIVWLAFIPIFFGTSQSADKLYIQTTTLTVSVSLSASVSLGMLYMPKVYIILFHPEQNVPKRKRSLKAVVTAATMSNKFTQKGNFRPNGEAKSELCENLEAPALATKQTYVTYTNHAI
readout.kind: EC50

Please review the entries below; each comes with its answer.
                            molecule_smiles                              assay_system  readout_kind  recorded_result
0        Fc1ccccc1-n1cc(-c2ccnc3ccccc23)cn1  Metabotropic glutamate receptor 4 (Homo sapiens, UniProt Q14833)          EC50          1100 nM
1        Cc1c(-c2ccnc3ccccc23)cnn1-c1ccccc1  Metabotropic glutamate receptor 4 (Homo sapiens, UniProt Q14833)          EC50           670 nM
2  c1ccc(-n2cc(-c3ccnc4cc(OCCN5CCCCC5)ccc34)cn2)cc1  Metabotropic glutamate receptor 4 (Homo sapiens, UniProt Q14833)          EC50          6000 nM
3  OCCCOc1ccc2c(-c3cnn(-c4ccccc4)c3)ccnc2c1  Metabotropic glutamate receptor 4 (Homo sapiens, UniProt Q14833)          EC50       > 10000 nM
4  CN(C)C(=O)Oc1ccc2c(-c3cnn(-c4ccccc4)c3)ccnc2c1  Metabotropic glutamate receptor 4 (Homo sapiens, UniProt Q14833)          EC50           950 nM

Request: Identify measured EC50 corresponding to c1ccc(-n2cc(-c3ccnc4c3CCC4)cn2)cc1
Response: 2300 nM

---

molecular target: CYP2C19 (Homo sapiens); assay: Inhibition of CYP2C19 at 5 uM; type: ADME
Sequence (P33261 whole entry): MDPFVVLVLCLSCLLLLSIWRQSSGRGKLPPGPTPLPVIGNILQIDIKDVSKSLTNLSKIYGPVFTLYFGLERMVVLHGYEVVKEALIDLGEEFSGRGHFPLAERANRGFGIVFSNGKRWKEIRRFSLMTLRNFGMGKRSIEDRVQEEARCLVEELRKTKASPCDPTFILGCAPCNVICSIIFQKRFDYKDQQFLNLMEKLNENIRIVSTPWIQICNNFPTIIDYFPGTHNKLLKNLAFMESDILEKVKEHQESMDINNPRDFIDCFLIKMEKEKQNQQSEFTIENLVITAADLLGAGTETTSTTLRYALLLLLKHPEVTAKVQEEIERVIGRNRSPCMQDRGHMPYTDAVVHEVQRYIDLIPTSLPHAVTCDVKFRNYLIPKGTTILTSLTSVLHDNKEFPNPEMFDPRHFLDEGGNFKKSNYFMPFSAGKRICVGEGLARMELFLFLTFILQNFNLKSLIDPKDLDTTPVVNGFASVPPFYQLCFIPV
readout.kind: inhibition at 5 µM (%)
Form entry: value (%) — number only.

Request: Give inhibition at 5 µM for the following molecule: CCN(CC)C(=O)Oc1ccc2c(-c3cnn(-c4ccccc4)c3)ccnc2c1
Response: 83

---

target: Metabotropic glutamate receptor 4 (Homo sapiens); test: Positive allosteric modulation of human mGlu4 receptor expressed in BHK cells assessed as potentiation of glutamate-induced calcium mobilization by FLIPR analysis
readout.kind: EC50

Below are worked cases with known answers.
>>> df
                            molecule_smiles  recorded_result
0  c1ccc(-n2cc(-c3ccnc4cc(OCCCN5CCCC5)ccc34)cn2)cc1          > 10 µM
1  CN(C)C(=O)COc1ccc2c(-c3cnn(-c4ccccc4)c3)ccnc2c1          > 10 µM

Request: Supply recorded EC50 for c1ccc(-n2cc(-c3ccncc3)cn2)cc1 here.
Response: > 10 µM
